# Assay target: pseudo-kinase domain (JH2, amino-acids 536-812) of human Wild Type JAK2 (Homo sapiens, UniProt O60674, F794H/W659A/W777A)
# Construct: pseudo-kinase domain (JH2, amino-acids 536-812 with 3 surface mutations W659A, W777A, F794H)
# Sequence (O60674 536-812 W659A/W777A/F794H): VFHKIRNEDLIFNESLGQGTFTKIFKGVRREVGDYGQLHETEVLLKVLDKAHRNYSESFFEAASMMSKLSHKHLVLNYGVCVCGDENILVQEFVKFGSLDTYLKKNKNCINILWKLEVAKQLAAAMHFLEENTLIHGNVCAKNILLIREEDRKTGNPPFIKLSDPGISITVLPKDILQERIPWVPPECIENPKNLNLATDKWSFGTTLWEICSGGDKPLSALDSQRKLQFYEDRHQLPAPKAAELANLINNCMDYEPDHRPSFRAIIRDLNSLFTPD
# Method summary: JAK2 LanthaScreen JH2-WT Binding Assay
# Cond: 1 hour at 25° C.
# Experimental: Example B. JAK2 LanthaScreen JH2-WT Binding Assay JAK2 JH2-WT binding assay utilizes pseudo-kinase domain (JH2, amino-acids 536-812 with 3 surface mutations W659A, W777A, F794H) of human Wild Type JAK2 expressed as C-terminal His-Avi-tagged, biotinylated protein in a baculovirus expression system (BPS Bioscience, Catalog #79463). […] After incubation for 1 hour at 25° C., LanthaScreen signals were read on a PHERAstar FS plate reader (BMG LABTECH). […]
Where a name gives a salt, the structure may show the parent alone.
Below, each of the compounds is paired with its reported IC50 value.

Here's what some known entries look like.
Compound	Measurement name	Result
CCc1c(-c2cnn(C)c2)[nH]c2ncc3c(c12)C1(CCN(c2ccncn2)CC1)C(=O)N3C [Example 19, trifluoroacetate salt]	IC50	0.1 to 0.5 µM
CN1C(=O)C2(CCN(C(C)(C)C3CNC3)CC2)c2c1cnc1[nH]c(-c3cnn(C)c3)c(-c3ccc4c(cnn4C)c3)c21 [Example 84]	IC50	≤ 0.1 µM
CCS(=O)(=O)N1CC(CC#N)(N2CCC3(CC2)C(=O)N(C)c2cnc4[nH]c(-c5cnn(C)c5)c(-c5ccccc5)c4c23)C1 [Example 23, trifluoroacetate salt]	IC50	≤ 0.1 µM

State its IC50 for this compound: COc1c(F)cc(-c2c(-c3cnn(CC(C)(C)O)c3)[nH]c3ncc4c(c23)C2(CCN(C3(CC#N)CCC3)CC2)C(=O)N4C)cc1F [Example 47, trifluoroacetate salt]
≤ 0.1 µM

// Input: O=C(O)C(F)(F)F.[2H]C([2H])([2H])N1C(=O)C2(CC3(CN(S(=O)(=O)CC)C3)C2)c2c1cnc1[nH]c(-c3cnn(C(C)C)c3)c(-c3ccc4c(cnn4C)c3)c21 [Example 89] . Output its IC50 only.
≤ 0.1 µM

Recall and state the measured IC50 for CN1C(=O)C2(CCN(CCC#N)CC2)c2c1cnc1[nH]c(-c3ccc(CN4CCC(S(C)(=O)=O)CC4)cc3)c(-c3ccccc3)c21 [Example 4, trifluoroacetate salt] .
≤ 0.1 µM

Return IC50 (reported value) for this compound: CN1C(=O)C2(CCN(C3(C)CCS(=O)(=O)C3)CC2)c2c1cnc1[nH]c(-c3cnn(C)c3)c(-c3ccc4c(cnn4C)c3)c21 (racemic) [Example 78]
≤ 0.1 µM

Read off the recorded IC50 for CCS(=O)(=O)N1CCC[C@]2(CC1)C(=O)N(C)c1cnc3[nH]c(-c4cnn(C(C)C)c4)c(-c4ccc5c(cnn5C)c4)c3c12 (single isomer, unassigned) [Example 53a]
0.1 to 0.5 µM

For the compound [2H]C([2H])([2H])n1ncc2cc(-c3c(-c4cnn(C)c4)[nH]c4ncc5c(c34)C3(CCN([C@](C)(CC#N)COC)CC3)C(=O)N5C)ccc21 (single isomer, unassigned) [Example 80a] , report IC50.
≤ 0.1 µM

Kindly indicate its recorded IC50. Item: [2H]C([2H])([2H])n1ncc2cc(-c3c(-c4cnn(C)c4)[nH]c4ncc5c(c34)[C@@]3(CC[C@H](NC(=O)C4(CC(N)=O)CCC4)C3)C(=O)N5C)ccc21 (racemic) [Example 100, trifluoroacetate salt]
0.5 to 1.25 µM

State its IC50 for this compound: Cc1ncc(-c2c(-c3cnn(C)c3)[nH]c3ncc4c(c23)C2(CCN(c3ccncn3)CC2)C(=O)N4C)s1 [Example 17, trifluoroacetate salt]
0.1 to 0.5 µM
